Target: T1, recombinant canine β NGF (canine, UniProt Q29074 110-229 (pig entry))
T1 construct: also called canine NGF
T1 chain: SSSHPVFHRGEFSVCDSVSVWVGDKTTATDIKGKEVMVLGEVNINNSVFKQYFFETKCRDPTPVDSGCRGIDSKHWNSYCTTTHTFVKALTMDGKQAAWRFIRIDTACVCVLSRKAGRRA
Assay: direct ELISA, canine NGF coated at 1 µg/ml, mAb at 10 µg/ml
Attribute Measured: absorbance at 450 nm (A450)
Write the number in A450 without appending the unit.

Below, each entry is followed by its recorded absorbance at 450 nm result.
{"columns": ["Binder", "absorbance at 450 nm (A450)"],
 "data": [
  ["PR-1254981 (antibody, mouse IgG1, V domains shown, also called 14A9; ML130-14A9.5B12) VH: EVQLVESGGGAVKPGGSLTLSCAASGFTFSNHYMYWVRQTPEKRLEWVASISDGGAYTFYPDTVKGRFTISRDNVNNNLYLQMRHLKSEDTAMYYCTREESANNGFAFWGQGTLVTVSA VL: DVLMTQTPLSLPVSLGDQASISCRSSQSILHSNGNTYLEWYLQKPGQSPNLLIYRVSNRFSGVPDRFSGSGSGTDFTLKISRVEAEDLGVYYCFQGAHVPFTFGSGTKLEIKR", 0.61],
  ["PR-1254982 (antibody, mouse IgG1, V domains shown, also called 3F7; ML130-3F7.4A8) VH: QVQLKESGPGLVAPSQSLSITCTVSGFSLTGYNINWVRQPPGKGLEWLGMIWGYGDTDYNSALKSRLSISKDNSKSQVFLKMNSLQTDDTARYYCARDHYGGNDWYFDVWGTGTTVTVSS VL: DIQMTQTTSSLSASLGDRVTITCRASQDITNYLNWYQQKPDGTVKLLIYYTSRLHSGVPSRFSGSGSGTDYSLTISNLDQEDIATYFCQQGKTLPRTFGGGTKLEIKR", 0.208]
]}

Alright, here's another binder for you.
Q: For the binder shown here, PR-1254973 (antibody, mouse IgG2b, V domains shown, also called 2B12; ML129-2B12.5G9) VH: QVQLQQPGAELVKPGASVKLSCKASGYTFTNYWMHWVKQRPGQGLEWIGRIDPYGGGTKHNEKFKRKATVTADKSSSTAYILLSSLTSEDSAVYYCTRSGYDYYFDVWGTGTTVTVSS VL: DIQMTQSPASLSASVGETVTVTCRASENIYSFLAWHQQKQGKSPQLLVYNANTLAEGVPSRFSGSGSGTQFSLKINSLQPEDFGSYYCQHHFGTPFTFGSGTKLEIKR , give the reported absorbance at 450 nm.
A: 0.905
